Could you please report measured Emax for the items listed next?
Target: BRAF V600E (Homo sapiens, UniProt P15056, V600E)
Sequence (P15056 whole entry V600E): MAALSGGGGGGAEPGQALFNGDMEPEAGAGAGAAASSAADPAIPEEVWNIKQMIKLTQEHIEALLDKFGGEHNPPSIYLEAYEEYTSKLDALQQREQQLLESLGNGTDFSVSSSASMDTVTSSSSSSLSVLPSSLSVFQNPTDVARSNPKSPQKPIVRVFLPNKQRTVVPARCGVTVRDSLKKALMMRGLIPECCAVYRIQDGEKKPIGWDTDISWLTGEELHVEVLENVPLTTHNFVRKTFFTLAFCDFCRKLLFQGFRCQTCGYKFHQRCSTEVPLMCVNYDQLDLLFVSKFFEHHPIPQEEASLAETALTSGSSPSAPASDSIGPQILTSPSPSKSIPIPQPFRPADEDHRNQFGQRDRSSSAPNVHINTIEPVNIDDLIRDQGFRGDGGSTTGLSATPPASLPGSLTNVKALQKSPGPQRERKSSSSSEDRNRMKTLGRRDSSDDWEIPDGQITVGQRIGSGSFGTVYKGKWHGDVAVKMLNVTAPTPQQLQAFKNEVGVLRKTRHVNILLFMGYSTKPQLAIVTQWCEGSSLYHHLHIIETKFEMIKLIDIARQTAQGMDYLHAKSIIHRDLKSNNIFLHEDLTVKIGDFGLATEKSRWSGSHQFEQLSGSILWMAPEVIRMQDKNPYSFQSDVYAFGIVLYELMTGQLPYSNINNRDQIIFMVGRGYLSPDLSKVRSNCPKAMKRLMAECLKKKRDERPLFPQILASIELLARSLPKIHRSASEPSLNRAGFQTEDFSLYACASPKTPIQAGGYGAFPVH
Test: HiBiT cellular BRAF^V600E degradation assay
Type: cell-based
Conditions: A375.10 cells, 24 h; residual protein remaining in the cell; read-out: HiBit 24 h Emax
Kindly report the value followed by its unit.

CCN(C)S(=O)(=O)Nc1ccc(F)c(Oc2ccc3ncn([C@@H]4COC5(CCN(C(=O)CN6CCC(c7ccc(NC8CCC(=O)NC8=O)cc7F)CC6)CC5)C4)c(=O)c3c2Br)c1C#N (stereo partly shown) [Example 74]; 11.6%
CCN(C)S(=O)(=O)Nc1ccc(F)c(Oc2ccc3ncn([C@H]4COC5(CCN(C(=O)CC6(O)CCN(c7cc8c(cc7F)c(N7CCC(=O)NC7=O)nn8C)CC6)CC5)C4)c(=O)c3c2N)c1C#N [Example 182]; 19.8%
CCN(C)S(=O)(=O)Nc1ccc(F)c(Nc2ccc3ncn([C@H]4COC5(CCN(C(=O)CC6CCN(c7cc8c(cc7F)c(N7CCC(=O)NC7=O)nn8C)CC6)CC5)C4)c(=O)c3c2F)c1C#N (single isomer, unassigned) [Example 202]; 23.9%
CO[C@@H]1CCN(S(=O)(=O)Nc2ccc(F)c(Oc3ccc4ncn([C@H]5COC6(CCN(C(=O)CC7(O)CCN(c8cc9c(cc8F)c(N8CCC(=O)NC8=O)nn9C)CC7)CC6)C5)c(=O)c4c3)c2C#N)C1 [Example 177]; 22.3%
CCN(C)S(=O)(=O)Nc1ccc(F)c(Oc2ccc3ncc(OC[C@@H]4[C@H]5CN(C(=O)CN6CCC(c7ccc(NC8CCC(=O)NC8=O)cc7F)CC6)C[C@@H]45)nc3c2)c1C#N (stereo partly shown) [Example 217]; 8.83%
N#Cc1c(NS(=O)(=O)C2CCCC2)ccc(F)c1Oc1ccc2ncn(-c3cnc(N4CCN(C(=O)CN5CCC(c6ccc(N[C@H]7CCC(=O)NC7=O)cc6F)CC5)CC4)nc3)c(=O)c2c1 [Example 109]; 9.04%
CCN(C)S(=O)(=O)Nc1ccc(F)c(Oc2ccc3ncn(C4COC5(CCN(C(=O)CN6CCC(c7ccc(NC8CCC(=O)NC8=O)cc7F)CC6)CC5)C4)c(=O)c3c2F)c1C#N (stereo not shown) [Example 51]; 10.9%
CN(C1CC1)S(=O)(=O)Nc1ccc(F)c(Oc2ccc3ncn(-c4cnc(N5CCN(C(=O)CN6CCC(c7ccc(N[C@H]8CCC(=O)NC8=O)cc7F)CC6)CC5)nc4)c(=O)c3c2)c1C#N [Example 127]; 8.95%
CCN(C)S(=O)(=O)Nc1ccc(F)c(Oc2ccc3ncn(C4CCC5(CCN(C(=O)CN6CCC(c7ccc(NC8CCC(=O)NC8=O)cc7F)CC6)CC5)C4)c(=O)c3c2F)c1C#N (stereo not shown) [Example 52]; 11.4%

Shifting focus to the compound that follows.
The recorded Emax for CCN(C)S(=O)(=O)Nc1ccc(F)c(Oc2ccc3ncn(-c4cnc(N5CCN(C(=O)CN6CCC(c7ccc(N[C@H]8CCC(=O)NC8=O)cc7F)CC6)CC5)nc4)c(=O)c3c2OC)c1C#N [Example 100] is 8.4%

Just for reference, patent US12486253B2 is where these values come from.
